assayed_system: r-A21T rURAT1 point mutant (Rattus norvegicus, UniProt Q3ZAV1, A21T)
Construct: expressed in transfected cells; host or cells: HEK-293T
Sequence (Q3ZAV1 whole entry A21T): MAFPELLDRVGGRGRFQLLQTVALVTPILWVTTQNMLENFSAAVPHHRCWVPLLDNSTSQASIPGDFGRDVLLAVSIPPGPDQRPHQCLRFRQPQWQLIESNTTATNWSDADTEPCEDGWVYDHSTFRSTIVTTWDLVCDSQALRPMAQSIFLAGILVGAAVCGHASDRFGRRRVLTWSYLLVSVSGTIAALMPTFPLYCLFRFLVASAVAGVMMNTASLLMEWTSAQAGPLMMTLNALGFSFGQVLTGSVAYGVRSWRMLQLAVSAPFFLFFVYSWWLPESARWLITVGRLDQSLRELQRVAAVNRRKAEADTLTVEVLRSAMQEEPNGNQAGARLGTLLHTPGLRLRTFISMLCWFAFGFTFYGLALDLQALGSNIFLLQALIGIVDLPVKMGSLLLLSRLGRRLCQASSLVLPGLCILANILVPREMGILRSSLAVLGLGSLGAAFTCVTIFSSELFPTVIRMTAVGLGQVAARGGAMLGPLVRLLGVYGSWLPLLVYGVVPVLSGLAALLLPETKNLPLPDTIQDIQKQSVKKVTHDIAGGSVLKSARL
method: URAT1 uric acid transport activity assay
Type: cell-based
measurement_conditions: r-A21T; MES pH 5.5; 100 μM 14C-uric acid; read-out: IC50 (uric acid transport)
pIC50: −log10 of the molar value.
measured_parameter: pIC50

O=C(O)CSc1nnc(Br)n1-c1ccc(C2CC2)c2ccccc12 [lesinurad] :: 4.15

====

assayed_system: rat URAT1 (rURAT1 WT) (Rattus norvegicus, UniProt Q3ZAV1)
Sequence (Q3ZAV1 whole entry): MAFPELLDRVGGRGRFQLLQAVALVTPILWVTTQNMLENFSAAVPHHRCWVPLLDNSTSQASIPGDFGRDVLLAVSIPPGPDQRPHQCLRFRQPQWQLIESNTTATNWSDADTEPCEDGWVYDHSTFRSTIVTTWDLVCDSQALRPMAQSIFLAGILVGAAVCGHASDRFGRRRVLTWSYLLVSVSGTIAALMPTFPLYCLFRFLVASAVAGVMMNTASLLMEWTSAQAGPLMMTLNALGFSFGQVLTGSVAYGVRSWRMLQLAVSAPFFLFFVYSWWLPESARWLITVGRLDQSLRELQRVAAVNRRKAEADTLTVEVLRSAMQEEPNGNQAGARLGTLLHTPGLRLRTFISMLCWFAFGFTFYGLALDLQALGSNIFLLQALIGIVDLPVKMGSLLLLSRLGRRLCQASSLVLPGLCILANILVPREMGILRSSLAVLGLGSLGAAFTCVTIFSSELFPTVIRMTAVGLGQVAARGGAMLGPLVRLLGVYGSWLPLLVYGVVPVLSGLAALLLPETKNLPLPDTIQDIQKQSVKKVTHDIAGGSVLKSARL
method: URAT1 uric acid transport activity assay
Format: cell-based
measured_parameter: IC50 (µM)

CCc1oc2ccccc2c1C(=O)c1cc(Br)c(O)c(Br)c1 [benzbromarone] :: 26

Reference for the values: paper PMC5054527
